# target.under.test: T1, Biotin-huCGRPaSA (human, not fully specified; biotin (position not given))
# T1 construct: exact construct ('aSA') not explained; also called Biotin CGRPaSA; full-length (1-37) CGRP
# T1 peptide: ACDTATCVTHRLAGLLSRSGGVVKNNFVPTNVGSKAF
# experiment.notes: ELISA, transfection supernatant, biotin-CGRP on streptavidin; also: test concentration or dose not given here
Listed here: items and their measured OD value.
A number alone suffices; assume OD.

{"binder": "C245 (antibody, V domains shown, 3C1-HC + 3C1-LC; chimeric, human constant regions; also called chimeric antibody C245) VH: EVQLQQSGPELVKPGASMKISCKASGYSFTGYTMNWVKQSHGNNLEWIGLINPYIGNTHYNQKFKDKATFTVDRSSSTAYMALLSLTSEDSAVYYCARELDSGFDYWGQGTTLTVSS VL: DVLMTQTPLSLPVSLGDQASLSCRSSQNIVHSNGDTYLEWYLQKPGQSPKLLIYKVSNRFSGVPDRFSGSGSGTDFTLKISRVEAEDLGVYYCYQGSHVPWTFGGGTKLEIK", "measurement.type": "OD value", "value.units": "OD", "endpoint.result": 3.31}

In the following, a different binder is considered.
# OD value of C48 (antibody, V domains shown, 1B2-HC + 1A2-LC2; chimeric, human constant regions) VH: EVQLQQSGPEVVKPGASVRISCQASGYTFTDYNMHWVKQSHGKSLEWIGYIFPYNGVAVYNRKFRSKATLIIDKSSTTAYMELRSLTSEDSAVYYCAREGLGGYWGQGTTLTVSS VL: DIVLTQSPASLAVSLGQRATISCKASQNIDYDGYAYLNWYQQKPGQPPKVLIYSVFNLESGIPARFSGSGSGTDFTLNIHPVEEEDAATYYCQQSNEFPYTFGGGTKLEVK = 3.12
